Listed below: melting point values for each entry.

{"compound": "N#Cc1cccc(C(c2ccc[nH]2)N2CCN(c3ccc(NC(=O)c4ccccc4-c4ccc(C(F)(F)F)cc4)cc3)CC2)c1 (stereo not drawn)", "melting point": "202 to 203 °C"}
{"compound": "CC(c1cccc(C(F)(F)F)c1)N1CCN(c2ccc(NC(=O)c3ccccc3-c3ccc(C(F)(F)F)cc3)cc2)CC1 (stereo not drawn)", "melting point": "158 to 160 °C"}
{"compound": "COC(=O)C(c1ccccc1)N1CCN(c2ccc(NC(=O)c3ccccc3-c3ccc(C(F)(F)F)cc3)cc2)CC1 (stereo not drawn)", "melting point": "130 to 135 °C"}
{"compound": "O=C(Nc1ccc(N2CCN(C(C(=O)c3ccccc3)c3ccccc3)CC2)cc1)c1ccccc1-c1ccc(C(F)(F)F)cc1 (stereo not drawn)", "melting point": "165 °C"}
{"compound": "O=C(Nc1ccc(N2CCN(C(C(=O)NCc3ccccn3)c3ccccc3)CC2)cc1)c1ccccc1-c1ccc(C(F)(F)F)cc1 (stereo not drawn)", "melting point": "139 to 141 °C"}
{"compound": "N#CC(c1ccccc1)N1CCN(c2ccc(NC(=O)c3ccccc3-c3ccc(C(F)(F)F)cc3)cc2)CC1 (stereo not drawn)", "melting point": "204 °C"}
{"compound": "Cc1ccc(C(=O)Nc2ccc(N3CCN(C(C)c4cccc(C#N)c4)CC3)cc2)c(-c2ccc(C(F)(F)F)cc2)c1 (stereo not drawn)", "melting point": "192 to 194 °C"}
{"compound": "CC(=O)C(c1ccc(F)cc1)N1CCN(c2ccc(NC(=O)c3ccccc3-c3ccc(C(F)(F)F)cc3)cc2)CC1 (stereo not drawn)", "melting point": "200 to 202 °C"}
{"compound": "CC(c1ccccc1)N1CCN(c2ccc(NC(=O)c3ccccc3-c3ccc(C(F)(F)F)cc3)cc2)CC1 (stereo not drawn)", "melting point": "194 to 196 °C"}
